biological target: Gag-Pol polyprotein [484-582,I494L,I497V,V499I,D514N,E519D,R541K,D544E,Q553K,N572D,L573M] (Human immunodeficiency virus, UniProt Q9QBY3, D514N/D544E/E519D/I494L/I497V/L573M/N572D/Q553K/R541K/V499I); construct: 484-582; assay: Inhibition Assay
This section presents molecules with their documented Ki values.
// return numeric value only (unit: nM, not printed)

Here is how some molecules turned out for Ki.
>  <Molecule>
COc1ccc(S(=O)(=O)N(CC2CCCCC2)C[C@@H](O)[C@H](Cc2ccccc2)NC(=O)c2cccc(O)c2)cc1

>  <Measure Unit>
nM

>  <Ki>
0.49

$$$$
>  <Molecule>
O=C(N[C@@H](Cc1ccccc1)[C@H](O)CN(CC1CCCCC1)S(=O)(=O)c1ccc2ncsc2c1)c1cccc(O)c1

>  <Measure Unit>
nM

>  <Ki>
0.383

$$$$
>  <Molecule>
O=C(N[C@@H](Cc1ccccc1)[C@H](O)CN(CCCc1ccccc1)S(=O)(=O)c1ccc2ncsc2c1)c1cccc(O)c1

>  <Measure Unit>
nM

>  <Ki>
2

$$$$
>  <Molecule>
CC[C@H](C)CN(C[C@@H](O)[C@H](Cc1ccccc1)NC(=O)C(NC(C)=O)[C@@H](C)CC)S(=O)(=O)c1ccc2ncsc2c1 (stereo partly specified)

>  <Measure Unit>
nM

>  <Ki>
0.028

$$$$

Problem: Give the reported value of Ki for this record: `COc1ccc(S(=O)(=O)N(CCCc2ccccc2)C[C@@H](O)[C@H](Cc2ccccc2)NC(=O)c2cccc(O)c2)cc1`
Solution: 2.54

Problem: Give the reported value of Ki for this record: `CC[C@H](C)CN(C[C@@H](O)[C@H](Cc1ccccc1)NC(=O)c1cccc(O)c1)S(=O)(=O)c1ccc(-c2ccno2)s1`
Solution: 2.95

The reported measurements were obtained from BindingDB's records for doi:10.1021/cb400468c.
